- protocol description: φn = volume fraction of the nth substance listed
- condition label: 303.15 K; 101.33 kPa; Liquid; Linear variable-path acoustic interferometer; φ2 = 0
speed of sound below 1000 m/s gives FALSE; speed of sound at or above it gives TRUE.

>  <molecule>
ClCCCl [1,2-dichloroethane] + BrCCBr

>  <class name>
TRUE

$$$$
>  <molecule>
CC(Cl)(Cl)Cl [1,1,1-trichloroethane] + BrCCBr

>  <class name>
FALSE

$$$$
>  <molecule>
ClC(Cl)C(Cl)Cl [1,1,2,2-tetrachloroethane] + BrCCBr

>  <class name>
TRUE

$$$$

###

- condition label: 303.15 K; 101.33 kPa; Liquid; Linear variable-path acoustic interferometer
Numbers after ± are expanded uncertainties.

>  <smiles record>
CC(Cl)(Cl)Cl

>  <speed of sound>
943.2 ± 3.3 m/s

$$$$
>  <smiles record>
ClC(Cl)=C(Cl)Cl

>  <speed of sound>
1027.8 ± 3.5 m/s

$$$$
>  <smiles record>
ClCCCl

>  <speed of sound>
1173.3 ± 3.6 m/s

$$$$
>  <smiles record>
ClC=C(Cl)Cl

>  <speed of sound>
1013.7 ± 3.5 m/s

$$$$
>  <smiles record>
BrCCBr

>  <speed of sound>
984 ± 3.2 m/s

$$$$
>  <smiles record>
ClC(Cl)C(Cl)Cl

>  <speed of sound>
1133.1 ± 3.5 m/s

$$$$
